Value source: patent US20220241296A1

Experiment: 14-day repeated dose toxicokinetic study, topical application to eyelid margin
Design: species or system Beagle dogs
Settings: both sexes, Beagle, dog, in vivo, topical or ocular, 9.6 ug/day, Tmax
Method: The purpose of this study was to evaluate the toxicokinetic of fluticasone propionate Form A nanosuspensions of the invention (see Table 10 below) administered via topical application directly to the rim (margin) of upper and lower eyelids of both eyes of Beagle dogs. […] Ophthalmology examinations were performed prior to treatment initiation, during the first and second weeks of dosing and during the last week of recovery. Eyes were scored once daily according to the modified Draize scale. […]
Readout: Tmax (min)
Numbers only, in min.

In: Report Tmax, nothing else, for this molecule: CCC(=O)O[C@]1(C(=O)SCF)[C@H](C)C[C@H]2[C@@H]3C[C@H](F)C4=CC(=O)C=C[C@]4(C)[C@@]3(F)[C@@H](O)C[C@@]21C [Fluticasone Propionate, fluticasone propionate]
Out: 30

----------
Test: 14-day repeated dose toxicokinetic study, topical application to eyelid margin
Design: species or system Beagle dogs
Conditions: both sexes, Beagle, dog, in vivo, topical or ocular, 32 ug/day, AUC0-24 h
Method: The purpose of this study was to evaluate the toxicokinetic of fluticasone propionate Form A nanosuspensions of the invention (see Table 10 below) administered via topical application directly to the rim (margin) of upper and lower eyelids of both eyes of Beagle dogs. […] Ophthalmology examinations were performed prior to treatment initiation, during the first and second weeks of dosing and during the last week of recovery. Eyes were scored once daily according to the modified Draize scale. […]
Readout: AUC(0-t) (ng·h/mL)
Give bare numbers, in ng·h/mL.

In: Report AUC(0-t), nothing else, for this compound: CCC(=O)O[C@]1(C(=O)SCF)[C@H](C)C[C@H]2[C@@H]3C[C@H](F)C4=CC(=O)C=C[C@]4(C)[C@@]3(F)[C@@H](O)C[C@@]21C [Fluticasone Propionate, fluticasone propionate]
Out: 0.481

----------
Test: 14-day repeated dose toxicokinetic study, topical application to eyelid margin
Parameters: species or system Beagle dogs
Settings: both sexes, Beagle, dog, in vivo, topical or ocular, 1.6 ug/day, Cmax
Readout: Cmax
Quick note: number first, unit second.

In: Report Cmax, nothing else, for this molecule: CCC(=O)O[C@]1(C(=O)SCF)[C@H](C)C[C@H]2[C@@H]3C[C@H](F)C4=CC(=O)C=C[C@]4(C)[C@@]3(F)[C@@H](O)C[C@@]21C [Fluticasone Propionate, fluticasone propionate]
Out: 0.0281 ng/mL

----------
Assay: 14-day repeated dose toxicokinetic study, topical application to eyelid margin
Set-up: species or system Beagle dogs
Settings: both sexes, Beagle, dog, in vivo, topical or ocular, 32 ug/day, Tmax
Readout: Tmax (min)
One number for each entry, in min.

In: Report Tmax, nothing else, for this molecule: CCC(=O)O[C@]1(C(=O)SCF)[C@H](C)C[C@H]2[C@@H]3C[C@H](F)C4=CC(=O)C=C[C@]4(C)[C@@]3(F)[C@@H](O)C[C@@]21C [Fluticasone Propionate, fluticasone propionate]
Out: 30

----------
Assay: 14-day repeated dose toxicokinetic study, topical application to eyelid margin
Set-up: species or system Beagle dogs
Details: both sexes, Beagle, dog, in vivo, topical or ocular, 64 ug/day, AUC0-24 h
Readout: AUC(0-t) (ng·h/mL)
Numbers only, in ng·h/mL.

In: Report AUC(0-t), nothing else, for this compound: CCC(=O)O[C@]1(C(=O)SCF)[C@H](C)C[C@H]2[C@@H]3C[C@H](F)C4=CC(=O)C=C[C@]4(C)[C@@]3(F)[C@@H](O)C[C@@]21C [Fluticasone Propionate, fluticasone propionate]
Out: 0.914
